protocol: yeast display, Sf9 membrane polyspecificity reagent, FACS + sequencing; frameworks hold sequencing errors

sequence_text	polyreactivity (PSR sort gate)
QVQLVESGGGLVQAGGSLRLSCAASGRIFARYVMGWYRQAPGKERELVAAISPSGSRTYYADSVKGRFTISRDNAKNTVYLQMNSLKPEDTAVYYCAATGVYTKNPRGMDYWGQGTQVTVSS	high polyreactivity
QVQLVESGGGLVQAGGSLRLSCAASGRTFAYNVMGGYRQAPGKERELVAGISFGAGSTYYADSVKGRFTISRDNAKNTVYLQMNSLNPEDTAVYYCATRRRGTRYQLGYDYWGQGTQVTVSS	high polyreactivity

---

protocol: yeast display, Sf9 membrane polyspecificity reagent, FACS + sequencing; frameworks hold sequencing errors

sequence_text	polyreactivity (PSR sort gate)
QVPLVESVGGLVQAGGSLRLSCAASGRIFRANAMGWYRQAPGKEREFVAAINFSVSSTYAYSVKGRFTISRDNAKNTVYLQMNSLKPEDTAVYYCAATPTREGEYWGQGTQVTVSS	low polyreactivity
QVQLVESGGGLVQEGGSLRLSCAASGSIFKQYAMGWYRQAPGKERELVAAISYSGGTTYYADSVKGRFTISRDNAKNTVYLQMNSMKPEDTAVYYCAAEWWILSYRFDYWGQGTQVTVSS	high polyreactivity
QVQLVESGGGLVQAGGSLRLSCAASGSIFGSYAMGWYRQAPGKARELVAAISQSGSSTYYADSVKGRFTISRDNAKNTVSLQMNSLKPEDTAVYYCAADWRHLRYRGGLQYDYWGQGTQVTVSS	high polyreactivity
QVQIVESGGGLVQAGGSLSLSCAASGSILDQYAMGWYRQAPGKERELVAAITAIGDSTYYADSLKGRFTISRDNAKYTVYLQMYSLKPEVTAVYYCAGTYVGSDGGDYWGQGTQVTVAS	low polyreactivity
QVHLVESVGGLVQAGGSLRLSCAASGIIFNDYAMGWYRQAPGKERELVATISWSGGSTYADSVKGRFTISRDNAKNTVYLQMNSLNPEDTAVYYCNADLGSSYDWGQGTQGTVSS	low polyreactivity
QVQLVESGGGLVQAGGSLRLSCAASGSIFNGYAMGWYRQAPGKVRELVAAISWNGGRTYYADSVKGRFTISRDNAKNTVYLQKNSLKPEDTAVYYCNKVSGYDVDYWGQGTQVTVSS	high polyreactivity
QVQLVESGGGLVQAGGSLRLRCAASGGNFDNYAMGWYRQAPGKERELVAAISRSGSSTFYADSVNGRFTISRDNAKNTVYLQMNSLKPEDTAVYYCSARYYYFAVYYGYIFEYDYWGQGTQLTVSS	low polyreactivity
QVQVVESGGGLVQAGGSLRLSCAASGITFFLNAMGWYRQAPGKERELVAAISSGAGTTYADSVKGRFTISRDNAKNTFFLQMKSLKPEDTAVYYCAAAGDYVVPISSTAGFGGDYWGQGTQVTVSS	low polyreactivity
QVQLVESGGGLVQAGGSLRLSCAASGLTFRHYAMGWYRQAPGKERELVAAITSSGGSTYYADSVKGRFTISRDNAKNTVYIQMNSLKPEDTAVYYCNARWSYFHAVSGVASDYWGQGTQVTVSS	high polyreactivity
QLQLVDSGGGLVQAGGSLRLSCAASGSIFGAYAMGWYRHAPGKERELVAAINYGGATTYYADSVKGRFTISRDNAKNTVYLQMNSLIPEDTAVYYCAADYLYAYGDVADVYGWYAYYYWGQGTQVTVSS	low polyreactivity
QVQLVESGGGLLQAGGSLRLSCAASGSTFYKYAMGWYRHAPRKERELVASISRSGRSTYYADSVKGRFTISRDNAKNTVYLQMNSLKPEDTAVYYCAATWRQHPGSMGYWGQGTQVTVSS	high polyreactivity
